assay: in vitro; type: in vitro ADME, mouse; conditions: male, CD-1, mouse, plasma (pooled); read-out: plasma protein binding (PPB)
assay_readout: fraction unbound at 4 h, 5 μM

Inquiry: GET /values?readout=fraction unbound at 4 h, 5 μM&item= `Cc1[nH]c(C(=O)Nc2nc3c(OCc4ccccc4)cc(C(=O)O)cc3s2)c(Cl)c1Cl`
Reply text: < 0.01

* * *

test: in vitro; conditions: mouse, hepatocytes
assay_readout: hepatocyte CLint at 1.5 h, 1 µM (µL/min/1e6 cells)
Give a bare numeral; the unit µL/min/1e6 cells is implied.

Inquiry: GET /values?readout=hepatocyte CLint at 1.5 h, 1 µM&item= `Cc1[nH]c(C(=O)Nc2nc3c(N4CCOCC4)cc(C(=O)O)cc3s2)c(Cl)c1Cl`
Reply text: 9

* * *

Assay: formulation solubility study
Format: physicochemical
Conditions: 100 mM carbonate buffer with 20% CD, pH 8.0, 20% CD
Procedure: For the actual in vivo assay, a […] pH was used, and the compound was prepared in a formulation of 100 mM carbonate buffer at pH 8.4 with 20% hydroxypropyl β-cyclodextrin. Solubility analysis was performed on an Acquity UPLC instrument (Waters, Milford, MA, USA). […]
assay_readout: solubility (µg/mL)
Give a bare numeral; the unit µg/mL is implied.

Inquiry: GET /values?readout=solubility&item= `Cc1[nH]c(C(=O)Nc2nc3c(N4CCOCC4)cc(C(=O)O)cc3s2)c(Cl)c1Cl`
Reply text: 3800

* * *

test system: 100 A. baumannii strains (50 MDR, 50 non-MDR); assay: MIC broth microdilution at IHMA Europe, panel of 100 strains; type: cell-based; conditions: Acinetobacter baumannii, A. baumannii IHMA 1849829, Kuwait 2018, Non-MDR; read-out: MIC
assay_readout: MIC (µg/mL)
Give a bare numeral; the unit µg/mL is implied.

C[C@@H](O)[C@H]1C(=O)N2C(C(=O)O)=C(S[C@@H]3CN[C@H](C(=O)N(C)C)C3)[C@H](C)[C@H]12 [Meropenem, meropenem]; 0.12

Inquiry: GET /values?readout=MIC&item= CN(C)c1cc(NC(=O)CNC(C)(C)C)c(O)c2c1C[C@H]1C[C@H]3[C@H](N(C)C)C(O)=C(C(N)=O)C(=O)[C@@]3(O)C(O)=C1C2=O [Tigecycline, tigecycline]
Reply text: 0.25

* * *

target: DNA gyrase from E. coli (Escherichia coli, UniProt P0AES6); construct: purchased Inspiralis; assay: supercoiling HTS plate assay; assay type: biochemical; conditions: read-out: IC50
Listed compounds paired with reported pIC50
Kindly note that pIC50 refers to -log10 of the concentration in mol/L and answer with the value alone.

Cc1[nH]c(C(=O)Nc2nc3c(N4[C@@H]5CC[C@H]4COC5)cc(C(=O)O)cc3s2)c(Cl)c1Cl [7h]; 7.89

Inquiry: GET /values?readout=pIC50&item= Cc1[nH]c(C(=O)Nc2nc3c(N4CCOC[C@H]4C)cc(C(=O)O)cc3s2)c(Cl)c1Cl [7c]
Reply text: 7.77

* * *

assay: mitochondrial toxicity glu/gal assay; format: cell-based; settings: human, galactose, 10 µM; read-out: cell viability (ATP), % of control
assay_readout: viability at 10 µM (%)
Give a bare numeral; the unit % is implied.

Inquiry: GET /values?readout=viability at 10 µM&item= `Cc1[nH]c(C(=O)Nc2nc3c(N4CCOCC4)cc(C(=O)O)cc3s2)c(Cl)c1Cl`
Reply text: 98
